- Assay method text: pharmacokinetics in blood plasma after oral administration in Wistar rats
- Assay conditions: Wistar, rat, in vivo, po, 30 mg/kg
Measured attribute: Cmax
Write the numeric value and follow it with the unit.

State its Cmax: `COc1cc(Nc2ncnc(Nc3ccc4c(n3)NC(=O)C(C)(C)O4)n2)cc(OC)c1OC` 4.12 ng/mL

---

- Assay method text: solubility of the primary base in selected organic solvents
- Format: physicochemical
- Assay conditions: organic solvent or mixture, thermodynamic from solid; Acetone, 97 mg base in 10 ml, 56 °C (code S-1-5-A1)
Measured attribute: solubility

State its solubility: COc1cc(Nc2ncnc(Nc3ccc4c(n3)NC(=O)C(C)(C)O4)n2)cc(OC)c1OC [Compound 1] < 10000 µg/mL

---

- Assay method text: solubility of the primary base in selected organic solvents
- Assay type: physicochemical
- Assay conditions: organic solvent or mixture, thermodynamic from solid; Ethanol, 98 mg base in 10 ml, 78 °C (code S-1-2-C2)
Measured attribute: solubility

State its solubility: COc1cc(Nc2ncnc(Nc3ccc4c(n3)NC(=O)C(C)(C)O4)n2)cc(OC)c1OC [Compound 1] < 10000 µg/mL

---

- Assay method text: pKa of protonated pyridine nitrogen
- Assay type: physicochemical
- Assay conditions: protonated nitrogen atom of pyridine
Measured attribute: pKa
// no unit, no text: just the number

State its pKa: `COc1cc(Nc2ncnc(Nc3ccc4c(n3)NC(=O)C(C)(C)O4)n2)cc(OC)c1OC` 4

---

- Assay method text: pharmacokinetics in blood plasma after oral administration in Wistar rats
- Assay conditions: Wistar, rat, in vivo, po, 30 mg/kg
Measured attribute: half-life
Write the numeric value and follow it with the unit.

State its half-life: `COc1cc(Nc2ncnc(Nc3ccc4c(n3)NC(=O)C(C)(C)O4)n2)cc(OC)c1OC` 11.8 h

---

- Assay method text: solubility of the primary base in selected organic solvents
- Format: physicochemical
- Assay conditions: organic solvent or mixture, thermodynamic from solid; THF, 103 mg base in 10 ml, 66 °C (code S-1-3-T)
Measured attribute: solubility

State its solubility: `COc1cc(Nc2ncnc(Nc3ccc4c(n3)NC(=O)C(C)(C)O4)n2)cc(OC)c1OC` < 10000 µg/mL

---

- Assay method text: pharmacokinetics in blood plasma after oral administration in Wistar rats
- Assay conditions: Wistar, rat, in vivo, po, 30 mg/kg
Measured attribute: AUC0-t

State its AUC0-t: COc1cc(Nc2ncnc(Nc3ccc4c(n3)NC(=O)C(C)(C)O4)n2)cc(OC)c1OC [Compound 1] 55 ng·h/mL

---

- System name: human recombinant tyrosine c-Src kinase (Homo sapiens)
- Sequence (P12931 whole entry): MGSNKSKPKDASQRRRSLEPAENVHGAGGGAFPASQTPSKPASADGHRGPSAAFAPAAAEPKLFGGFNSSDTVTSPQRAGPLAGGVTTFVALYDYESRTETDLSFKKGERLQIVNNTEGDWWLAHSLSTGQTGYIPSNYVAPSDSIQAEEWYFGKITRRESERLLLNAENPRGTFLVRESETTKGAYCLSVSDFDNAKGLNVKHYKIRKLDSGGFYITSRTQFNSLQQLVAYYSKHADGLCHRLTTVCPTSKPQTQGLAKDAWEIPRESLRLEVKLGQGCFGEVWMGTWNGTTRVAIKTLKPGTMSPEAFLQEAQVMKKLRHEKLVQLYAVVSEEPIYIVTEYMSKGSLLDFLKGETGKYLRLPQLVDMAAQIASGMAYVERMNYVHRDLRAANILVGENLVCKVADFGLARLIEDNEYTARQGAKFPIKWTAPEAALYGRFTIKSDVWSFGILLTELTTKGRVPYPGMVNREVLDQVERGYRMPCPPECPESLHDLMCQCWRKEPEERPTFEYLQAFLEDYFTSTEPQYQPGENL
- Assay method text: human kinase enzymatic activity in vitro (33P-ATP, peptide substrate)
- Protocol: The Compound 1 effect on the human recombinant tyrosine c-Src kinase was measured as follows: a peptide substrate was dissolved in a reaction buffer ad 0.2 mg/ml concentration. A solution of recombinant c-Src kinase was added to 2 nM concentration and the studied compound to the required concentration (within the range of 1 nM to 10 μM) was added. […] A reaction extent was determined based on radioactivity of the reaction products.
Measured attribute: IC50 (nM)
Give a bare numeral; the unit nM is implied.

// fetch IC50; item: `COc1cc(Nc2ncnc(Nc3ccc4c(n3)NC(=O)C(C)(C)O4)n2)cc(OC)c1OC.Cc1ccc(S(=O)(=O)O)cc1` ; system: human recombinant tyrosine c-Src kinase (Homo sapiens) 14

---

- Assay method text: pharmacokinetics in blood plasma after oral administration in Wistar rats
- Assay conditions: Wistar, rat, in vivo, po, 30 mg/kg
Measured attribute: AUC(0-inf)
Write the numeric value and follow it with the unit.

State its AUC(0-inf): `COc1cc(Nc2ncnc(Nc3ccc4c(n3)NC(=O)C(C)(C)O4)n2)cc(OC)c1OC` 73 ng·h/mL
